Attribute: LC50/EC50 ratio (therapeutic ratio)
# Test system: cyprids of barnacle B. amphitrite
# PROCEDURE DETAILS: Anti-larval settlement bioassay (antifouling activity and larval toxicity)
# Format: in vivo
# APPLIED CONDITIONS: B. amphitrite cyprids; ratio >15 considered non-toxic
# Description: The newly released nauplii were screened with the aperture of 90 μm. The newly released nauplii were raised in filtered seawater (FSW) at 28 °C with mild aeration and fed with Chaetoceros gracilis Schutt at 1 × 10^6 cells ml^−1. The nauplius larvae transformed into cyprids (ready to attach and metamorphose) after 3.5 days. […] The antifouling activity was evaluated as larval settlement inhibition against the cyprids of barnacle B. amphitrite using 24-well polystyrene plates (Nunc, Naperville, CA, USA). […]

Consider the following illustrative entries.
molecule="COc1cc(O)c(-c2c3c(c(O)c4c(OC)cc(O)cc24)C(=O)C=C(C)C3=O)c2cc3c(c(O)c12)C(=O)C[C@@](C)(O)C3 [compound 38, Asperinine B]" target_or_system="cyprids of barnacle B. amphitrite" result=>2.22
molecule=C/C(=C\[C@H](O)C[C@@H](C)CCCc1ccoc1)CCCc1ccoc1 target_or_system="cyprids of barnacle B. amphitrite" result=25.2

Moving on to another molecule below.
Which measured LC50/EC50 ratio (therapeutic ratio) value corresponds to COc1cc(O)c(-c2c3c(c(O)c4c(OC)cc(O)cc24)C(=O)C=C(C)C3=O)c2cc3c(c(O)c12)C(=O)C[C@@](C)(O)C3 [compound 37, Asperinine A] ?
>2.88
